Procedure Summary: small molecules boosting NK-mediated OVCAR3 lysis – imaging, primary NK cells, calcein-AM imaging, primary screen (AID 1508625);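 note: compound given to NK cells 16 h before adding targets at 1.5 to 1 ratio; reference of the scale not given here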
Measurement Conditions: OVCAR3 lysis by primary NK cells, at 5 µM
Property: corrected activity, negative = more killing; scope: individual compounds
Write down the numeric answer in % and omit the unit.

These solved cases illustrate the format of a correct answer.
> print(dat)
                                   compound  observed.value
1   COc1ccc(C(=O)N2CCN(CC=Cc3ccccc3)CC2)cc1           -1.03
2  Cc1ccc(NC(=O)CSc2nc3c([nH]c4ccccc43)c(=O)n2-c2ccc(F)cc2)cc1           -5.11
3        O=C(NN=C1CCCCC1)C(=O)Nc1ccc(Cl)cc1           -4.69

### Prompt Give me measured corrected activity, negative = more killing, please, for this compound: CC(C)Oc1ccc(CNC2CCOC(C)(C)C2)cc1 (centres undefined)
### Response -3.04

### Prompt Give the value of corrected activity, negative = more killing reported for the following: "CCCCSc1nc2c([nH]c3ccccc32)c(=O)n1-c1ccc(F)cc1"
### Response -4.96

### Prompt In one line, give reported corrected activity, negative = more killing of the entry "Cn1c2ccccc2c(=Nc2ccc(Br)cc2)c2ccccc21" .
### Response -4.16

### Prompt Supply corrected activity, negative = more killing value. Item: "COc1ccc(-n2c(=S)[nH]c3cc(C(=O)N4CCOCC4)ccc3c2=O)cc1"
### Response -10.1

### Prompt Supply measured corrected activity, negative = more killing of COc1ccc(CN2C(=O)c3ccccc3C2C(=O)NCCCN2CC(C)CC(C)C2)cc1 (centres undefined) in your reply.
### Response -3.06

Origin of the recorded values: PubChem BioAssay AID1508625
